Source of measurements: PubChem BioAssay (NCATS)

assay: qHTS of pediatric cancer cell lines to identify multiple opportunities for drug repurposing: Primary screen for OHS-50 cells (AID 1347103); settings: OHS-50 osteosarcoma viability, CellTiter-Glo luminescence, 48 h; series mostly up to 57.3 µM; note: nearly all actives have a fitted effect of over 40% in size
Results filed as inconclusive are left out. Active and inactive are the calls of the source. Calls come from the whole dose curve; as a rule, active = well fitted cell-killing curve with a large enough effect; inconclusive = small, poorly fitted or top-dose-only effect; inactive = no such curve, though single readings can be large or run the other way.
Possible outcomes: 1.0 = active, 0.0 = inactive

C[C@H]1C[C@H](O)c2ccsc2S1(=O)=O; 0.0
Cc1nc([N+](=O)[O-])cn1-c1ccc([N+](=O)[O-])cc1; 0.0
CC(=O)Nc1c(I)c(NC(C)=O)c(I)c(C(=O)O)c1I; 0.0
C[C@H](CN1CCCC1)C(=O)c1ccc(C(F)(F)F)cc1; 0.0
O=C(O)/C=C(\CC(=O)O)C(=O)O; 0.0
CC1CCCCN1CCCOC(=O)c1ccc(OC2CCCCC2)cc1 (stereo unspecified); 1.0
O=C(CCCl)NCc1ccccc1; 0.0
COc1ccc2c(c1)c(CC(=O)OC/C=C(\C)CC/C=C(\C)CCC=C(C)C)c(C)n2C(=O)c1ccc(Cl)cc1; 0.0
Cn1c(=O)c2c(ncn2CC(=O)O)n(C)c1=O; 0.0
NC(=O)NS(=O)(=O)c1ccc(Cl)cc1; 0.0
COC(=O)CCCCC(CCSS/C(CCO)=C(\C)N(C=O)Cc1cnc(C)nc1N)SC(C)=O (stereo unspecified); 0.0
